These data points were gathered from patent US11236122B2.

tested on: panel of HIV-1 isolates in human PBMCs; assay: PBMC antiviral assay against a panel of HIV-1 isolates (RT activity); assay type: cell-based; details: Human immunodeficiency virus 1, PBMC, isolate JV1083, PBMC
Where a name gives a salt, the structure may show the parent alone.
PROPERTY_MEASURED: pIC50
Just so you know, pIC50 here is -log10 of the concentration in molar units; reply with that number alone.

[[record]]
molecule = "C=C(C)[C@@H]1CC[C@]2(CCNCCN3CCN(Cc4ccc(Cl)cc4)CC3)CC[C@]3(C)[C@H](CC[C@@H]4[C@@]5(C)CC[C@H](OC(=O)CC(C)(C)C(=O)O)C(C)(C)[C@@H]5CC[C@]43C)[C@@H]12 [Compound 51n]"
observed_measurement = 6.51

[[record]]
molecule = "C=C(C)[C@@H]1CC[C@]2(CCNCCN3CCN(S(C)(=O)=O)CC3)CC[C@]3(C)[C@H](CC[C@@H]4[C@@]5(C)CC[C@H](OC(=O)CC(C)(C)C(=O)O)C(C)(C)[C@@H]5CC[C@]43C)[C@@H]12 [Compound 51ff]"
observed_measurement = 6.34

[[record]]
molecule = "C=C(C)[C@@H]1CC[C@]2(CCNC3CCN(CCO)CC3)CC[C@]3(C)[C@H](CC[C@@H]4[C@@]5(C)CC[C@H](OC(=O)CC(C)(C)CC(=O)O)C(C)(C)[C@@H]5CC[C@]43C)[C@@H]12 [Compound 51f, Bis(trifluoroacetate) Salt]"
observed_measurement = 6.32

[[record]]
molecule = "C=C(C)[C@@H]1CC[C@]2(CCNCCN3CCS(=O)(=O)CC3)CC[C@]3(C)[C@H](CC[C@@H]4[C@@]5(C)CC[C@H](OC(=O)CC(C)(C)C(=O)O)C(C)(C)[C@@H]5CC[C@]43C)[C@@H]12 [Compound 51ee]"
observed_measurement = 6.90

[[record]]
molecule = "C=C(C)[C@@H]1CC[C@]2(CCNCCN3CCN(Cc4cccc(Cl)c4)CC3)CC[C@]3(C)[C@H](CC[C@@H]4[C@@]5(C)CC[C@H](OC(=O)CC(C)(C)C(=O)O)C(C)(C)[C@@H]5CC[C@]43C)[C@@H]12 [Compound 51o]"
observed_measurement = 6.66


The molecule listed as C=C(C)[C@@H]1CC[C@]2(CCNCCN3CCN(Cc4ccccc4)CC3)CC[C@]3(C)[C@H](CC[C@@H]4[C@@]5(C)CC[C@H](OC(=O)CC(C)(C)C(=O)O)C(C)(C)[C@@H]5CC[C@]43C)[C@@H]12 [Compound 51hh] shows pIC50 equal to 7.77
